# System: HCT-116 colon
# ASSAY SUMMARY: NCI-60 one-dose screen, 48 h (100 = growth as untreated, 0 = no growth, -100 = all killed)
# COND: 10 µM
About 83,000 compounds went through this panel and 20% of them were active in at least one assay; those are over-represented in the sample as a whole.
Rule: growth below 10% gives 1 (yes), anything at or above gives 0 (no).

{"COMPOUND": "CC(C)C(=O)Nc1ccc(C(=O)NC(=S)Nc2ccc(C(=O)O)cc2)cc1", "CATEGORY": "0 (no)"}

Q) Please determine if `COc1ccc(-c2ccc(/C=N/NC(=O)c3[nH]c4ccc(Br)cc4c3-c3ccccc3)s2)cc1` is below 10% in terms of growth.
A) 0 (no)

Q) Please determine if `CN(C)CCNC(=O)OCCCCOc1cc(O)c2c(=O)cc(-c3ccccc3)oc2c1` is below 10% in terms of growth.
A) 1 (yes)

Q) Please determine if `C=CC(=O)Nc1ccc(C(=O)/C=C/c2ccc(N(C)CCF)cc2)c(O)c1` is below 10% in terms of growth.
A) 1 (yes)

Q) Please determine if `O=c1[nH]c2ccccc2cc1CSc1ccc(Nc2nccc(-c3ccc4c(c3)OCO4)n2)cc1` is below 10% in terms of growth.
A) 0 (no)

Q) Please determine if OCc1[nH]nc2cc(Nc3ncc4ccc(Br)c(OC5CCC(O)CC5)c4n3)ccc12 (stereo not drawn) is below 10% in terms of growth.
A) 1 (yes)

Q) Please determine if `Cc1ccc(-c2nc3ccc(C(=O)N=Nc4c(O)[nH]c5ccc([N+](=O)[O-])cc45)cc3[nH]2)cc1` is below 10% in terms of growth.
A) 0 (no)

Q) Please determine if `O=C1Nc2ccc(Cl)cc2/C1=C/c1cccc(OCc2ccccn2)c1` is below 10% in terms of growth.
A) 1 (yes)

Q) Please determine if `C=C(C)[C@@H]1CC[C@]2(C)[C@H](CC=C3[C@@H]4CC(C)(C)CC[C@]4(C(=O)N4CCOCC4)CC[C@]32C)[C@@]1(C)CCCN` is below 10% in terms of growth.
A) 1 (yes)

Q) Please determine if `O=c1[nH]c2ccccc2cc1CSc1ccc(Nc2nccc(-c3ccc4ccccc4c3)n2)cc1` is below 10% in terms of growth.
A) 0 (no)

Q) Please determine if `CCCCSc1nc(Nc2ccc(/C(C)=N/NC(N)=S)cc2)c(C#N)c(-c2ccccc2)n1` is below 10% in terms of growth.
A) 0 (no)

Q) Please determine if `CN1CCN(c2ccc(Nc3nc(NCCCNC(=O)c4ccc(F)cc4)c4sccc4n3)cc2)CC1` is below 10% in terms of growth.
A) 0 (no)

Q) Please determine if `N#C/C(=C\c1ccc(N(c2ccccc2)c2ccccc2)cc1)C(N)=O` is below 10% in terms of growth.
A) 0 (no)

Q) Please determine if CCOC(=O)C(Cc1ccccc1)N1C(=O)/C(=C/N2N=C(c3ccc(OC)cc3)CC2c2ccc3ccccc3c2)SC1=S (stereo not drawn) is below 10% in terms of growth.
A) 1 (yes)

Q) Please determine if `Nc1nnc(-c2c[nH]c3ccc(F)cc23)c(-c2c[nH]c3ncccc23)n1` is below 10% in terms of growth.
A) 0 (no)

Q) Please determine if CC(=O)C1=C(C)NC(SCC(=O)Nc2ccc(S(=O)(=O)Nc3cc(C)on3)cc2)=NC1c1ccccc1 (stereo not drawn) is below 10% in terms of growth.
A) 0 (no)

Q) Please determine if `Cc1nc(Nc2nc(C)c3ccc(OCCN4CCOCC4)cc3n2)[nH]c(=O)c1C` is below 10% in terms of growth.
A) 1 (yes)

Q) Please determine if COc1ccc(C2N(c3ccc(Br)cc3)N=C(C(C)=O)N2[C@H]2[C@H](OC(C)=O)O[C@H](COC(C)=O)[C@@H](OC(C)=O)[C@@H]2OC(C)=O)cc1 (stereo partly drawn) is below 10% in terms of growth.
A) 0 (no)
